molecular target: C-C chemokine receptor type 4 (Homo sapiens); assay: Displacement of [125I]CCl22 from human CCR4 receptor expressed in mouse B300-19 cells at 1 uM by SPA; format: cell-based
Respond with Met for inhibition values of 10% and above, Not met for values below.

For orientation, consider the following solved cases.
- COc1cc2nc(N3CCN(C)CC3)nc(NC3CCCCCC3)c2cc1OC: Not met
- COc1cc2nc(N3CCC(N4CCC(F)CC4)CC3)nc(NC3CCCCCC3)c2cc1OC: Not met
- COc1cc2nc(N3CCC(N4CCCC4)CC3)nc(NC3CCCC3)c2cc1OC: Met

Lookup: Is reported inhibition greater than or equal to 10% here: COc1cc2nc(N3CCC(N4CCCCC4)CC3)nc(NC3CCCCCC3)c2cc1OC
Found: Met

Lookup: Is reported inhibition greater than or equal to 10% here: COc1cc2nc(N3CCC(N4CCCC4)CC3)nc(NCCc3ccccc3)c2cc1OC
Found: Not met

Lookup: Is reported inhibition greater than or equal to 10% here: COc1cc2nc(N3CCC(N4CCCC4)CC3)nc(NCc3ccccc3)c2cc1OC
Found: Not met

Lookup: Is reported inhibition greater than or equal to 10% here: COc1cc2nc(N(C)CCc3ccccc3)nc(NC3CCCCCC3)c2cc1OC
Found: Not met

Lookup: Is reported inhibition greater than or equal to 10% here: COc1cc2nc(N3CCC(N4CCCC4)CC3)nc(NC3CCCCCCC3)c2cc1OC
Found: Met

Lookup: Is reported inhibition greater than or equal to 10% here: COc1cc2nc(N3CCCCC3)nc(NC3CCCCCC3)c2cc1OC
Found: Met

Lookup: Is reported inhibition greater than or equal to 10% here: COc1cc2nc(N3CCC(N(C)C)CC3)nc(NC3CCCCCC3)c2cc1OC
Found: Met

---

target: C-C chemokine receptor type 4 (Homo sapiens); assay: Antagonist activity at human CCR4 receptor expressed in mouse B300-19 cells assessed as CCL22-induced chemotaxis by bioluminescent assay; assay type: functional, cell-based
MEASURED ATTRIBUTE: log10 of Activity (log10 of the value in µM)
Remember, log10 of Activity, in µM.

- c1ccc2c(NC3CCCCCC3)nc(N3CCC(N4CCCC4)CC3)nc2c1: 0.15
- COc1cc2nc(N3CCC(N4CCCC4)CC3)nc(NC3CCCCCC3)c2cc1OC: -0.70
- COc1ccc2nc(N3CCC(N4CCCC4)CC3)nc(NC3CCCCCC3)c2c1: -0.39
- COc1ccc2c(NC3CCCCCC3)nc(N3CCC(N4CCCC4)CC3)nc2c1: -0.92
- COc1cc2nc(N3CCC(N(C)C4CCCC4)CC3)nc(NC3CCCCCC3)c2cc1OC: -0.92

# input for lookup
Lookup: Tell me its log10 of Activity on C-C chemokine receptor type 4 (Homo sapiens): COc1cc2nc(N3CCC(N4CCC(F)CC4)CC3)nc(NC3CCCCCC3)c2cc1OC
Found: -0.51

---

target: C-C chemokine receptor type 4 (Homo sapiens); assay: Displacement of [125I]CCl22 from human CCR4 receptor expressed in mouse B300-19 cells at 1 uM by SPA; type: cell-based
MEASURED ATTRIBUTE: inhibition (%)
Write the value in % as a bare number.

Record excerpt, results attached:
- COc1cc2nc(N3CCC(C)CC3)nc(NC3CCCCCC3)c2cc1OC: 15
- COc1cc2nc(NCCCN3CCCC3=O)nc(NC3CCCCCC3)c2cc1OC: 8
- COc1cc2nc(N3CCC(N4CCCC4)CC3)nc(NC3CCCCNC3=O)c2cc1OC (stereo not given): 16

Lookup: Tell me its inhibition given COc1cc2nc(N3CCN(c4ccccc4)CC3)nc(NC3CCCCCC3)c2cc1OC as the entry.
Found: 7

Lookup: Tell me its inhibition given COc1cc2nc(NCCCN3CCCC3)nc(NC3CCCCCC3)c2cc1OC as the entry.
Found: 16

Lookup: Tell me its inhibition given COc1cc2nc(NCCN3CCCCC3)nc(NC3CCCCCC3)c2cc1OC as the entry.
Found: 18
